- experiment_description: Phase 1/2 clinical study: pharmacokinetics in cancer patients
- Assay type: in vivo, human
- conditions_used: human, plasma, oral; 300 mg QD; steady state (Cycle 1 Day 8); N = 16; % CV 102%; read-out: T1/2 Geo mean (% CV) (converted)
measure: half-life (h)

                                   molecule  unit_string  quantitative_readout
0  COc1ccc(F)cc1C(=O)NCc1ccc(-c2nn([C@@H](C)C(F)(F)F)c(N)c2C(N)=O)cc1 [BTK-I]            h                  30.1

* * *

- experiment_description: Phase 1/2 clinical study: pharmacokinetics in cancer patients
- Assay type: in vivo, human
- conditions_used: human, plasma, oral; 150 mg; 2 hr; read-out: Mean patient plasma CONC (SD)
measure: concentration at 2 h (ng/mL)

>>> print(df.to_string())
                                   molecule               measure  unit_string  quantitative_readout
0  COc1ccc(F)cc1C(=O)NCc1ccc(-c2nn([C@@H](C)C(F)(F)F)c(N)c2C(N)=O)cc1 [BTK-I]  concentration at 2 h        ng/mL                  4640

* * *

- experiment_description: Phase 1/2 clinical study: pharmacokinetics in cancer patients
- Type: in vivo, human
- conditions_used: human, plasma, oral; 200 mg; 24 hr (not measured, inferred based on predose); read-out: Mean patient plasma CONC (SD)
measure: concentration at 24 h (ng/mL)

>>> df
                           molecular_string                measure  unit_string  quantitative_readout
0  COc1ccc(F)cc1C(=O)NCc1ccc(-c2nn([C@@H](C)C(F)(F)F)c(N)c2C(N)=O)cc1  concentration at 24 h        ng/mL                  2770

* * *

- experiment_description: Phase 1/2 clinical study: pharmacokinetics in cancer patients
- Assay type: in vivo, human
- conditions_used: human, plasma, oral; 250 mg QD; steady state (Cycle 1 Day 8); N=25; read-out: Tmax Median (min, max)
measure: Tmax (h)

In [3]: df
Out[3]:
                                   compound  quantitative_readout
0  COc1ccc(F)cc1C(=O)NCc1ccc(-c2nn([C@@H](C)C(F)(F)F)c(N)c2C(N)=O)cc1 [BTK-I]                     2

* * *

- experiment_description: Phase 1/2 clinical study: pharmacokinetics in cancer patients
- Type: in vivo, human
- conditions_used: human, plasma, oral, 25 mg, 25 mg QD; steady state (Cycle 1 Day 8); N=5; read-out: AUC0-8 Geo mean (% CV)
measure: AUC(0-t) (ng·h/mL)

                           molecular_string   measure  quantitative_readout
0  COc1ccc(F)cc1C(=O)NCc1ccc(-c2nn([C@@H](C)C(F)(F)F)c(N)c2C(N)=O)cc1  AUC(0-t)                  4240

* * *

- experiment_description: Phase 1/2 clinical study: pharmacokinetics in cancer patients
- Format: in vivo, human
- conditions_used: human, plasma, oral; 300 mg QD; steady state (Cycle 1 Day 8); N=17; read-out: Tmax Median (min, max)
measure: Tmax (h)

In [3]: df
Out[3]:
                           molecular_string  measure  quantitative_readout
0  COc1ccc(F)cc1C(=O)NCc1ccc(-c2nn([C@@H](C)C(F)(F)F)c(N)c2C(N)=O)cc1     Tmax                     2

* * *

- experiment_description: Phase 1/2 clinical study: pharmacokinetics in cancer patients
- Assay type: in vivo, human
- conditions_used: human, plasma, oral, 300 mg, 300 mg QD; steady state (Cycle 1 Day 8); N=17; read-out: AUC0-8 Geo mean (% CV)
measure: AUC(0-t)

>>> print(df.to_string())
                           molecular_string         result
0  COc1ccc(F)cc1C(=O)NCc1ccc(-c2nn([C@@H](C)C(F)(F)F)c(N)c2C(N)=O)cc1  65800 ng·h/mL

* * *

- experiment_description: Phase 1/2 clinical study: pharmacokinetics in cancer patients
- Format: in vivo, human
- conditions_used: human, plasma, oral, 150 mg, 150 mg QD; steady state (Cycle 1 Day 8); N=20; read-out: AUC0-8 Geo mean (% CV)
- Description: The study is an open-label, multi-center study of oral BTK-I to evaluate safety and efficacy as monotherapy and as part of combination therapy in patients with CLL/SLL and NHL who have failed or are intolerant to standard of care. This study includes monotherapy as well as combination treatment parts. The monotherapy part includes Phase 1 dose escalation and dose expansion as well as Phase 2. […]
measure: AUC(0-t) (ng·h/mL)

>>> df
                                   compound   measure  quantitative_readout
0  COc1ccc(F)cc1C(=O)NCc1ccc(-c2nn([C@@H](C)C(F)(F)F)c(N)c2C(N)=O)cc1 [BTK-I]  AUC(0-t)                 28000

* * *

- experiment_description: Phase 1/2 clinical study: pharmacokinetics in cancer patients
- Format: in vivo, human
- conditions_used: human, plasma, oral; 300 mg; 1 hr; read-out: Mean patient plasma CONC (SD)
measure: concentration at 1 h (ng/mL)

                           molecular_string               measure  unit_string  quantitative_readout
0  COc1ccc(F)cc1C(=O)NCc1ccc(-c2nn([C@@H](C)C(F)(F)F)c(N)c2C(N)=O)cc1  concentration at 1 h        ng/mL                  9730

* * *

- experiment_description: Phase 1/2 clinical study: pharmacokinetics in cancer patients
- Assay type: in vivo, human
- conditions_used: human, plasma, oral; 250 mg; 0 hr; read-out: Mean patient plasma CONC (SD)
measure: concentration at 0 h

In [3]: df
Out[3]:
                           molecular_string      result
0  COc1ccc(F)cc1C(=O)NCc1ccc(-c2nn([C@@H](C)C(F)(F)F)c(N)c2C(N)=O)cc1  3160 ng/mL

* * *

- experiment_description: Phase 1/2 clinical study: pharmacokinetics in cancer patients
- Assay type: in vivo, human
- conditions_used: human, plasma, oral, 50 mg, 50 mg QD; steady state (Cycle 1 Day 8); N=6; read-out: AUC0-8 Geo mean (% CV)
measure: AUC(0-t) (ng·h/mL)

In [3]: df
Out[3]:
                           molecular_string   measure  quantitative_readout
0  COc1ccc(F)cc1C(=O)NCc1ccc(-c2nn([C@@H](C)C(F)(F)F)c(N)c2C(N)=O)cc1  AUC(0-t)                  8660

* * *

- experiment_description: Phase 1/2 clinical study: pharmacokinetics in cancer patients
- Format: in vivo, human
- conditions_used: human, plasma, oral; 300 mg; 0 hr; read-out: Mean patient plasma CONC (SD)
measure: concentration at 0 h (ng/mL)

>>> df
                                   molecule  quantitative_readout
0  COc1ccc(F)cc1C(=O)NCc1ccc(-c2nn([C@@H](C)C(F)(F)F)c(N)c2C(N)=O)cc1 [BTK-I]                  5510

* * *

- experiment_description: Phase 1/2 clinical study: pharmacokinetics in cancer patients
- Assay type: in vivo, human
- conditions_used: human, plasma, oral; 150 mg; 24 hr (not measured, inferred based on predose); read-out: Mean patient plasma CONC (SD)
measure: concentration at 24 h

>>> df
                                   compound                measure      result
0  COc1ccc(F)cc1C(=O)NCc1ccc(-c2nn([C@@H](C)C(F)(F)F)c(N)c2C(N)=O)cc1 [BTK-I]  concentration at 24 h  1800 ng/mL

* * *

- experiment_description: Phase 1/2 clinical study: pharmacokinetics in cancer patients
- Assay type: in vivo, human
- conditions_used: human, plasma, oral; 100 mg; 24 hr (not measured, inferred based on predose); read-out: Mean patient plasma CONC (SD)
measure: concentration at 24 h (ng/mL)

>>> df
                           molecular_string  unit_string  quantitative_readout
0  COc1ccc(F)cc1C(=O)NCc1ccc(-c2nn([C@@H](C)C(F)(F)F)c(N)c2C(N)=O)cc1        ng/mL                  1580

* * *

- experiment_description: Phase 1/2 clinical study: pharmacokinetics in cancer patients
- Type: in vivo, human
- conditions_used: human, plasma, oral; 300 mg; 24 hr (not measured, inferred based on predose); read-out: Mean patient plasma CONC (SD)
measure: concentration at 24 h (ng/mL)

>>> df
                           molecular_string                measure  unit_string  quantitative_readout
0  COc1ccc(F)cc1C(=O)NCc1ccc(-c2nn([C@@H](C)C(F)(F)F)c(N)c2C(N)=O)cc1  concentration at 24 h        ng/mL                  5510
